meta.source: PubChem BioAssay (NCATS)

- Tgt: Luciferin 4-monooxygenase (Photinus pyralis)
- Protocol Text: Biochemical firefly luciferase enzyme assay for NPC (AID 624030);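 further: purified P. pyralis luciferase at 10 nM with luciferin and ATP substrate; nearly all actives have a fitted effect of over 70% in size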
- Measurement Context: purified P. pyralis luciferase, luminescence, 5 min; series mostly up to 58.6 µM
Inconclusive results are not listed. Activity calls are given as the source filed them. The call rests on the fitted dose curve; in most records, active means well fitted inhibition curve with a large enough effect; inconclusive means small, poorly fitted or top-dose-only effect; inactive means flat fitted curve, though single readings scatter.
Allowed answers: YES (active), NO (inactive)

- CC(C)(S)C(=O)N[C@H](CS)C(=O)O: NO

Ask | How was CO[C@]1(NC(=O)Cc2cccs2)C(=O)N2C(C(=O)O)=CC(COC(N)=O)S[C@H]21 (stereo partly specified) classified in this test?
Reply | NO

Ask | How was CC(=O)O[C@]1(C(=O)CO)[C@@H](C)C[C@H]2[C@@H]3CCC4=CC(=O)C=C[C@]4(C)[C@@]3(F)[C@@H](O)C[C@]21C classified in this test?
Reply | NO
